# test target: cysteines in MDA-MB-231 and Ramos cells (Homo sapiens)
# Sequence (P10599 whole entry, the tested form may be a part): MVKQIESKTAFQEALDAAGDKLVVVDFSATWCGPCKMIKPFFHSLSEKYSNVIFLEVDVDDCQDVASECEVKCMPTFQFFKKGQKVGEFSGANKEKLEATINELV
# procedure details: Competitive isoTOP-ABPP in situ (fragment-treated cells)
# Format: cell-based
# test conditions: 200 μM, insitu, 231
isoTOP-ABPP ratio P10599_C32 for assorted compounds

compound: CC(C)CCOCCNC(=O)CCl
isoTOP-ABPP ratio P10599_C32: 2.5
--
compound: O=C(CCl)NC12CC3CC(CC(C3)C1)C2
isoTOP-ABPP ratio P10599_C32: 3.9
--
compound: O=C(CCl)N1CCN(S(=O)(=O)c2ccccc2F)CC1
isoTOP-ABPP ratio P10599_C32: 3.8
--
compound: CC1CCc2ccccc2N1C(=O)CCl (centres unmarked)
isoTOP-ABPP ratio P10599_C32: 5.7
--
compound: Cc1ccc(C=C(C#N)C(=O)NCCN2CCOCC2)cc1
isoTOP-ABPP ratio P10599_C32: 0.4
--
compound: COc1ccccc1OCCNC(=O)CCl
isoTOP-ABPP ratio P10599_C32: 20.0
--
compound: O=C(CCl)Nc1cccc2ncccc12
isoTOP-ABPP ratio P10599_C32: 13.9
--
compound: O=C(CCl)NC(=O)NC12CC3CC(CC(C3)C1)C2
isoTOP-ABPP ratio P10599_C32: 20.0
--
compound: C=CC(=O)N(Cc1cccnc1)c1cc(C(F)(F)F)cc(C(F)(F)F)c1
isoTOP-ABPP ratio P10599_C32: 1.2
--
compound: O=C(CCl)NCCc1c[nH]c2ccccc12
isoTOP-ABPP ratio P10599_C32: 7.9
--
compound: C=CC(=O)Nc1cc(F)c(N2CCN(C(=O)OC(C)(C)C)CC2)c(F)c1
isoTOP-ABPP ratio P10599_C32: 2.1

Reference source for all entries: patent US10670605B2
